- Tgt: 5-HT2A receptor (Homo sapiens, UniProt P28223)
Structures can show the parent of a compound that is named as a salt.
Hi! Just check whether Ki is below 300 nM. Below gives fulfilled, equal or above gives not fulfilled.

CC(C)c1nc2c(c(-c3ccccc3)n1)CCN(Cc1ccccc1)C2 [Example 75]    fulfilled
Cc1ccc(-c2nc(Cc3ccc(F)cc3)ncc2CN(C)C)cc1 [Example 116]    not fulfilled
c1ccc(Cc2nc3c(c(-c4ccccc4)n2)CCN(Cc2ccccc2)C3)cc1 [Example 72]    fulfilled
Fc1ccc(-c2nc(C3CCC3)nc3c2CNCC3)cc1 [Example 5, hydrochloride]    fulfilled

###

- Tgt: 5-HT2A receptor (Homo sapiens)
pKi: −log10 of the molar value. Structures can show the parent of a compound that is named as a salt.
pKi listing for selected compounds.
Parameter: pKi

Cc1cc(-c2nc(C(C)C)nc3c2CCN(C)C3)cs1 [Example 90, hydrochloride]    7.77
CC(C)c1nc2c(c(-c3ccc(F)cc3)n1)CCN(Cc1ccccc1)C2 [Example 74]    7.33
Cc1ccc(-c2cc(CN3CCN(C)CC3)nc(Cc3ccccc3)n2)cc1 [Example 113]    6.19
COc1ccc(-c2nc(CC(C)C)nc3c2CNCC3)cc1 [Example 41]    5.70
Cc1cc(-c2nc(C(C)C)nc3c2CCNC3)cs1 [Example 88, hydrochloride]    7.89
CN(C)CCc1cc(-c2ccc(F)cc2)nc(C(C)(C)C)n1 [Example 167]    8.15
Cc1ccc(-c2nc(Cc3ccccc3)nc3c2CNCC3)cc1 [Example 8]    7.70
CC(C)c1nc2c(c(-c3ccccc3)n1)CCN(C)C2 [Example 85]    7.09
Cc1ccc(-c2nc(C3CCCC3)nc3c2CNCC3)cc1 [Example 18]    8.00
CN1CCc2nc(Cc3ccc(F)cc3)nc(-c3ccc(F)cc3)c2C1 [Example 14]    7.52
Cc1ccc(-c2nc(Cc3ccccc3)nc3c2CCN(C)CC3)cc1 [Example 61]    8.72
Cc1ccc(-c2nc(Cc3ccccc3)nc3c2CCNC3)cc1 [Example 77, hydrochloride]    7.82
CC(C)c1nc(-c2ccsc2)c2c(n1)C(C)CNC2 (stereo not shown) [Example 105]    7.40
CC(C)c1nc(-c2ccc(C(F)(F)F)cc2)c2c(n1)C(C)CNC2 (stereo not shown) [Example 104]    6.15
CC(C)c1nc2c(c(-c3ccc(Cl)c(Cl)c3)n1)CNCC2 [Example 23, hydrochloride]    6.30
COc1ccc(-c2nc(C3CCCC3)nc3c2CCN(C)CC3)cc1 [Example 60]    8.22
Cc1ccc(-c2nc(C3CCC3)nc3c2CNCC3)cc1 [Example 6]    7.30
Cc1ccc(-c2nc(Cc3ccccc3)nc3c2CCNCC3)cc1 [Example 55]    9.38
Cc1nc2c(c(-c3cccc(Cl)c3)n1)CCNCC2 [Example 53]    6.00
